assay: Aqueous solubility of the compound in solution at pH 6.8 in presence of 15 mM sodium taurocholate; assay type: physicochemical; conditions: aqueous solution with 15 mM sodium taurocholate
ENDPOINT: solubility (µM)
Please give a number only; it is taken to be in µM.

Query: Annotate the molecule CN(Cc1cccc(-c2cnc(N3CCN(c4ccc(C(=O)O)cc4Cl)CC3)nc2)c1)C(=O)CN.Cl.Cl with its measured solubility.
Reply: 89.6

* * *

molecular target: UniProt Q16853; assay: Inhibition of human VAP-1 expressed in CHO cells using 14C-benzylamine as substrate preincubated for 20 mins followed by substrate addition measured after 1 hr by scintillation spectrometric analysis
Sequence (Q16853 whole entry): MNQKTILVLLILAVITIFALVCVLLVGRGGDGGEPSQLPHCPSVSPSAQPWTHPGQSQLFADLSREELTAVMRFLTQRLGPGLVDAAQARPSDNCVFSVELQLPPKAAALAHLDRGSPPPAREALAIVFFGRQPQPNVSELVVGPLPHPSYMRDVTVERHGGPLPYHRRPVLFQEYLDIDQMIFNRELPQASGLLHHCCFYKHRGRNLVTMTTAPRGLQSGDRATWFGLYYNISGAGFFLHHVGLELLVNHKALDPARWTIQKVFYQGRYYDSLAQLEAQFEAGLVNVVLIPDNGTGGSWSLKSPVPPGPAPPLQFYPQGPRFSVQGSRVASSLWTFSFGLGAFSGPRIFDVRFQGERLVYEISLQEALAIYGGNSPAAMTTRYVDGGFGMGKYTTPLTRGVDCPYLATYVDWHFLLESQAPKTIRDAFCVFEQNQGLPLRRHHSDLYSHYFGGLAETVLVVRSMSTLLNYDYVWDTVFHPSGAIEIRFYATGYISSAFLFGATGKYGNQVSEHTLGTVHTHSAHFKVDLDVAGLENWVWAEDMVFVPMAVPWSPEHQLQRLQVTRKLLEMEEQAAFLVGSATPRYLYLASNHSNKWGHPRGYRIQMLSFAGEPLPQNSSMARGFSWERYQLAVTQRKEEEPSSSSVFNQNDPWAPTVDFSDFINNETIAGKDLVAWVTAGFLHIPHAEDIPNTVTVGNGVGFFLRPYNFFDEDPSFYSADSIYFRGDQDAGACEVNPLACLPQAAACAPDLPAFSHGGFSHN
pIC50: −log10 of the molar value.
ENDPOINT: pIC50

Field: example entries. Status: answers known.
[
  {
    "SMILES_DATA": "CN(Cc1cccc(-c2cnc(N3CCC[C@@H]3CO)nc2)c1)C(=O)CN",
    "pIC50": 6.52
  },
  {
    "SMILES_DATA": "CN(Cc1cccc(-c2cnc(N3CCC(CCC(=O)O)CC3)nc2)c1)C(=O)CN",
    "pIC50": 6.85
  },
  {
    "SMILES_DATA": "CN(Cc1cccc(-c2cnc(N3CCC(C(=O)O)CC3)nc2)c1)C(=O)CN",
    "pIC50": 5.77
  },
  {
    "SMILES_DATA": "CN(Cc1cccc(-c2cnc(N3CCN(c4ccc(C(=O)O)cc4)CC3)nc2)c1)C(=O)CN.Cl.Cl",
    "pIC50": 7.62
  }
]

[I] CN(Cc1cccc(-c2ccc(N3CCOCC3)cc2)n1)C(=O)CN
[II] CN(Cc1cccc(-c2cnc(N3CCC[C@H]3CO)nc2)c1)C(=O)CN
Query: Select one. Lower pIC50: I or II Write the label of whichever entry you select.
Reply: I

* * *

molecular target: CYP2C19 (Homo sapiens); assay: Inhibition of CYP2C19 in human liver microsomes assessed as residual activity at 5 uM using S-mephenytoin as substrate after 20 mins by LC-MS/MS analysis; type: ADME; settings: probe S-mephenytoin, read-out: Activity
Sequence (P33261 whole entry): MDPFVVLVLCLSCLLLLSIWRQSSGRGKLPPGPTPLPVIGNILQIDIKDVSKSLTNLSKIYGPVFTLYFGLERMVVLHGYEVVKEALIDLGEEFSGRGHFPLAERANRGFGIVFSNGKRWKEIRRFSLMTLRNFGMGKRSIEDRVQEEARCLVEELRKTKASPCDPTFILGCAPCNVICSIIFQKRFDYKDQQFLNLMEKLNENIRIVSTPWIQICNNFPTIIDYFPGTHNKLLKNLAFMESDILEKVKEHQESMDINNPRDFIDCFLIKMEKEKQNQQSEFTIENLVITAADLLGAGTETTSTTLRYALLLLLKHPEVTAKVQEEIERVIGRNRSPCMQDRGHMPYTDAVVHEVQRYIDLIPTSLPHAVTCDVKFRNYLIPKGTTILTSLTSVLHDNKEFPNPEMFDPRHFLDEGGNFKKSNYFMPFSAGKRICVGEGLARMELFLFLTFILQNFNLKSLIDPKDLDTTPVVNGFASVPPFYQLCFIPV
ENDPOINT: activity at 20 min, 5 µM (%)

Field: example entries. Status: answers known.
[
  {
    "SMILES_DATA": "CN(Cc1cccc(-c2cnc(N3CCN(c4ccc(C(=O)O)cc4Cl)CC3)nc2)c1)C(=O)CN.Cl.Cl",
    "RESULT_UNITS": "%",
    "activity at 20 min, 5 µM": 109
  },
  {
    "SMILES_DATA": "CN(Cc1cccc(-c2cnc(N3CCC(C(=O)O)CC3)nc2)c1)C(=O)CN",
    "RESULT_UNITS": "%",
    "activity at 20 min, 5 µM": 104
  },
  {
    "SMILES_DATA": "CN(Cc1cccc(-c2cnc(N3CCN(c4ccc(C(=O)O)cc4)CC3)nc2)c1)C(=O)CN.Cl.Cl",
    "RESULT_UNITS": "%",
    "activity at 20 min, 5 µM": 106
  }
]

[A] CN(Cc1cccc(-c2cnc(N3CCC(CCC(=O)O)CC3)nc2)c1)C(=O)CN
[B] CN(Cc1cccc(-c2ccc(N3CCOCC3)cc2)c1)C(=O)CN
Query: Select one. Lower activity at 20 min, 5 µM: A or B Write the label of whichever entry you select.
Reply: B
(B: 63%, A: 119%)
